Tested on: SW480
test summary: TCF/Wnt firefly luciferase reporter signal relative to plate median (fraction of plate median); higher = higher Wnt reporter signal
details: 10 µM; treatment time 24 h; reporter: 7TFP
List of TCF/Wnt firefly luciferase reporter signal values.
Number only, please.

Worked cases, TCF/Wnt firefly luciferase reporter signal given:
| molecule | reported value |
| --- | --- |
| C#Cc1cccc(Nc2ncnc3cc(OCCOC)c(OCCO)cc23)c1 | 1.05 |
| O=c1c(O)c(-c2ccc(O)c(O)c2)oc2cc(O)cc(O)c12 [Quercetin (Sophoretin)] | 0.978 |

Now look at this one.
stdin: What value of measured TCF/Wnt firefly luciferase reporter signal is listed for O=C1NC(=O)[C@@H](c2cn3c4c(cccc24)CCC3)[C@@H]1c1c[nH]c2ccccc12 [ARQ 197 (Tivantinib)] ?
stdout: 0.701

###

List of cell viability values.
Tested on: SW480
test summary: cell viability (CellTiter-Glo) relative to plate median (fraction of plate median); higher = more viable cells
details: 5 µM; treatment time 24 h; reporter: 7TFP
Number only, please.

| compound | cell viability |
| --- | --- |
| NC1(C(=O)O)CCCC1 | 0.996 |

stdin: Request - read-out cell viability | tested on SW480 | compound "Clc1ccc2c(c1)C(N1CCNCC1)=Nc1ccccc1O2"
stdout: 0.995

stdin: Request - read-out cell viability | tested on SW480 | compound CC(C(=O)O)[C@H]1CCC2C3CC=C4C[C@@H](O)CC[C@]4(C)C3CC[C@@]21C (stereo partly drawn) [3beta-HYDROXY-23,24-BISNORCHOL-5-ENIC ACID]
stdout: 0.999

stdin: Request - read-out cell viability | tested on SW480 | compound "Cc1cc(C(C)(C)C)c(O)c(C(C)(C)C)c1"
stdout: 1

stdin: Request - read-out cell viability | tested on SW480 | compound "Nc1nc(F)nc2c1ncn2[C@@H]1O[C@H](COP(=O)(O)O)[C@@H](O)[C@@H]1O"
stdout: 0.972

stdin: Request - read-out cell viability | tested on SW480 | compound "COc1cc([C@@H]2c3cc4c(cc3[C@@H](O[C@@H]3O[C@@H]5CO[C@@H](C)O[C@H]5[C@H](O)[C@H]3O)[C@H]3COC(=O)[C@H]23)OCO4)cc(OC)c1O"
stdout: 1.03

stdin: Request - read-out cell viability | tested on SW480 | compound "CCCCCCCCCCCCCCCC(=O)OC/C=C(C)/C=C/C=C(C)/C=C/C1=C(C)CCCC1(C)C"
stdout: 0.997

stdin: Request - read-out cell viability | tested on SW480 | compound "O=c1ccc2cc(O)c(O)cc2o1"
stdout: 1.04

stdin: Request - read-out cell viability | tested on SW480 | compound "CN(C(=O)CN(CCO)CC(=O)N(C)C(C)(C)Cc1ccccc1)C(C)(C)Cc1ccccc1"
stdout: 1.11

stdin: Request - read-out cell viability | tested on SW480 | compound "C[C@@H]1CC(=O)O[C@H](C)Cc2cc(O)cc(O)c2C(=O)O[C@H](C)CC(=O)O[C@H](C)Cc2cc(O)cc(O)c2C(=O)O[C@H](C)CC(=O)O1"
stdout: 1.01

stdin: Request - read-out cell viability | tested on SW480 | compound "COc1ccc2c(c1)CC[C@@H]1[C@@H]2CC[C@]2(C)[C@@H](O)CC[C@@H]12"
stdout: 1
